# System: Vero E6 ATCC CRL1586 cells
# ASSAY_EXPLANATION: Mammalian-cell cytotoxicity, minimal cytotoxic concentration (CellTiter96)
# Format: cell-based
MEASURED_ATTRIBUTE: MCC mammalian cells Vero E6 ATCC CRL1586 (µg/mL)
Give the number; µg/mL is assumed, so skip it.

Recorded MCC mammalian cells Vero E6 ATCC CRL1586, per entry:
{"columns": ["COMPOUND", "MCC mammalian cells Vero E6 ATCC CRL1586, µg/mL"],
 "data": [
  ["O=C(NC(Cc1ccccc1)C(=O)Nc1cccc2cc[nH]c12)c1cccs1 (stereo not drawn)", 48],
  ["Cc1ccc(F)cc1NC(=O)C(Cc1ccccc1)NC(=O)c1ccccc1F (stereo not drawn)", 38],
  ["Cc1ccccc1C(=O)NC(Cc1ccccc1)C(=O)Nc1cc(Cl)ccc1N1CCNCC1 (stereo not drawn)", 12.5],
  ["Cc1ccccc1C(=O)NC(Cc1ccccc1)C(=O)Nc1cccc2nc[nH]c12 (stereo not drawn)", 92]
]}

[in] What does the record list as MCC mammalian cells Vero E6 ATCC CRL1586 for Cc1ccccc1C(=O)NC(Cc1ccccc1)C(=O)Nc1cc(F)ccc1OCF (stereo not drawn) ?
[out] 100

[in] What does the record list as MCC mammalian cells Vero E6 ATCC CRL1586 for Cc1ccccc1C(=O)NC(Cc1ccccc1)C(=O)Nc1ccccc1N1CCOCC1 (stereo not drawn) ?
[out] 84

[in] What does the record list as MCC mammalian cells Vero E6 ATCC CRL1586 for O=C(NC(Cc1ccccc1)C(=O)Nc1cccc2c1OC(F)(F)O2)c1ccccc1F (stereo not drawn) ?
[out] 94

* * *

# Test system: Mycobacterium smegmatis ATCC 19420
# ASSAY_EXPLANATION: Broth microdilution MIC, M. smegmatis
# Assay type: cell-based
# SETUP_CONDITIONS: Mycolicibacterium smegmatis, ATCC19420, M. smegmatis ATCC 19420; read-out: MIC Mycobacterium smegmatis ATCC 19420
The entries below are paired with their reported MIC.
Give the number; µg/mL is assumed, so skip it.

Recorded MIC, per entry:
{"columns": ["COMPOUND", "MIC / µg/mL"],
 "data": [
  ["Cc1ccc(Cl)cc1NC(=O)C(Cc1ccccc1)NC(=O)c1ccccc1F (stereo not shown)", 0.39],
  ["O=C(NC(Cc1ccccc1)C(=O)Nc1cccc2cc[nH]c12)c1ccccc1F (stereo not shown)", 0.78],
  ["O=C(NC(Cc1ccc(O)cc1)C(=O)Nc1cccc2c1OCCO2)c1ccccc1Br (stereo not shown)", 3.1],
  ["O=C(N[C@@H](Cc1ccccc1)C(=O)Nc1cc(Cl)ccc1N1CCNCC1)c1ccccc1F (racemic) [IX-274b]", 6.25],
  ["Cc1ncccc1NC(=O)C(Cc1ccccc1)NC(=O)c1ccccc1 (stereo not shown)", 3.12],
  ["CC(=O)N1CCCN(c2ccc(F)cc2NC(=O)C(Cc2ccccc2)NC(=O)c2ccccc2F)CC1 (stereo not shown)", 0.39],
  ["O=C(NC(Cc1ccccc1)C(=O)Nc1ccccc1C(F)F)c1ccccc1 (stereo not shown)", 3.12],
  ["O=C(NC(Cc1ccc(O)cc1)C(=O)Nc1cc(F)ccc1N1CCNCC1)c1cccs1 (stereo not shown)", 0.78],
  ["O=C(NC(Cc1ccccc1)C(=O)Nc1cccc2[nH]ncc12)c1ccccc1 (stereo not shown)", 0.195],
  ["Cc1ccccc1C(=O)NC(Cc1ccc(O)cc1)C(=O)Nc1ccccc1N1CCOCC1 (stereo not shown)", 0.095]
]}

[in] What does the record list as MIC for Cc1ccc(F)cc1NC(=O)C(Cc1ccccc1)NC(=O)c1cccs1 (stereo not shown) ?
[out] 0.19

[in] What does the record list as MIC for Cn1cnc2cccc(NC(=O)C(Cc3ccccc3)NC(=O)c3ccccc3)c21 (stereo not shown) ?
[out] 1.56

[in] What does the record list as MIC for O=C(NC(Cc1ccccc1)C(=O)Nc1ccccc1OC(F)F)c1ccccc1 (stereo not shown) ?
[out] 0.39

[in] What does the record list as MIC for O=C(NC(Cc1ccccc1)C(=O)Nc1cccc2[nH]ncc12)c1ccccc1F (stereo not shown) ?
[out] 0.39

[in] What does the record list as MIC for Cc1ccc(F)cc1NC(=O)C(Cc1ccccc1)NC(=O)c1ccccc1F (stereo not shown) ?
[out] 0.195

* * *

# Test system: Mycobacterium tuberculosis H37Rv
# ASSAY_EXPLANATION: Microplate Alamar Blue assay (MABA) MIC, M. tuberculosis
# Type: cell-based
# SETUP_CONDITIONS: read-out: MIC Mycobacterium tuberculosis H37Rv
MEASURED_ATTRIBUTE: MIC (µg/mL)
Give the number; µg/mL is assumed, so skip it.

Recorded MIC, per entry:
{"columns": ["COMPOUND", "TARGET_OR_SYSTEM", "U", "OBS_VALUE"],
 "data": [
  ["O=C(NC(Cc1ccc(O)cc1)C(=O)Nc1ccccc1N1CCOCC1)c1ccccc1 (stereo not shown)", "Mycobacterium tuberculosis H37Rv", "µg/mL", 1.56],
  ["CC1CN(c2ccccc2NC(=O)C(Cc2ccccc2)NC(=O)c2ccccc2)CC(C)O1 (stereo not shown)", "Mycobacterium tuberculosis H37Rv", "µg/mL", 6.25]
]}

[in] Record lookup: for Mycobacterium tuberculosis H37Rv, what MIC belongs to COc1ccc(F)cc1NC(=O)C(Cc1ccccc1)NC(=O)c1ccccc1 (stereo not shown) ?
[out] 1.56

[in] Record lookup: for Mycobacterium tuberculosis H37Rv, what MIC belongs to CC(=O)Oc1ccc(CC(NC(=O)c2cccs2)C(=O)Nc2ccccc2N2CCOCC2)cc1 (stereo not shown) ?
[out] 0.78

[in] Record lookup: for Mycobacterium tuberculosis H37Rv, what MIC belongs to O=C(NC(Cc1ccccc1)C(=O)Nc1cc(F)ccc1N1CCOCC1)c1cccs1 (stereo not shown) ?
[out] 0.78

* * *

The entries below are paired with their reported pIC50.
# TARGET_OR_SYSTEM: Mycobacterium tuberculosis RNA polymerase (Mycobacterium tuberculosis, UniProt P9WGY7+P9WGY9)
# Sequence (P9WGZ1 whole entry): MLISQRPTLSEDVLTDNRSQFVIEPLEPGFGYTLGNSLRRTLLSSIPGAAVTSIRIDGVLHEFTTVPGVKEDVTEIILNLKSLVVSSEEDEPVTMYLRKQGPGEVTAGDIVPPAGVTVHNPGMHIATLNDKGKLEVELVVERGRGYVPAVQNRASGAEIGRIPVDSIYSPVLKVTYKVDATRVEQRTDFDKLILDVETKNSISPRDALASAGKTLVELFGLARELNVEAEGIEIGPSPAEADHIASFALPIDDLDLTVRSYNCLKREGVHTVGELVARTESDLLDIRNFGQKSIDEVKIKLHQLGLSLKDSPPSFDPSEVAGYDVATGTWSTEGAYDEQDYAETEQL
# Sequence (P9WGY5 whole entry, further chain): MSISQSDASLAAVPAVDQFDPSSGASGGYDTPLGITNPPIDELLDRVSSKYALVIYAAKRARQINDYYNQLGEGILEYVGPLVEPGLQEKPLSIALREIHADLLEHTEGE
# Sequence (P9WGY9 whole entry): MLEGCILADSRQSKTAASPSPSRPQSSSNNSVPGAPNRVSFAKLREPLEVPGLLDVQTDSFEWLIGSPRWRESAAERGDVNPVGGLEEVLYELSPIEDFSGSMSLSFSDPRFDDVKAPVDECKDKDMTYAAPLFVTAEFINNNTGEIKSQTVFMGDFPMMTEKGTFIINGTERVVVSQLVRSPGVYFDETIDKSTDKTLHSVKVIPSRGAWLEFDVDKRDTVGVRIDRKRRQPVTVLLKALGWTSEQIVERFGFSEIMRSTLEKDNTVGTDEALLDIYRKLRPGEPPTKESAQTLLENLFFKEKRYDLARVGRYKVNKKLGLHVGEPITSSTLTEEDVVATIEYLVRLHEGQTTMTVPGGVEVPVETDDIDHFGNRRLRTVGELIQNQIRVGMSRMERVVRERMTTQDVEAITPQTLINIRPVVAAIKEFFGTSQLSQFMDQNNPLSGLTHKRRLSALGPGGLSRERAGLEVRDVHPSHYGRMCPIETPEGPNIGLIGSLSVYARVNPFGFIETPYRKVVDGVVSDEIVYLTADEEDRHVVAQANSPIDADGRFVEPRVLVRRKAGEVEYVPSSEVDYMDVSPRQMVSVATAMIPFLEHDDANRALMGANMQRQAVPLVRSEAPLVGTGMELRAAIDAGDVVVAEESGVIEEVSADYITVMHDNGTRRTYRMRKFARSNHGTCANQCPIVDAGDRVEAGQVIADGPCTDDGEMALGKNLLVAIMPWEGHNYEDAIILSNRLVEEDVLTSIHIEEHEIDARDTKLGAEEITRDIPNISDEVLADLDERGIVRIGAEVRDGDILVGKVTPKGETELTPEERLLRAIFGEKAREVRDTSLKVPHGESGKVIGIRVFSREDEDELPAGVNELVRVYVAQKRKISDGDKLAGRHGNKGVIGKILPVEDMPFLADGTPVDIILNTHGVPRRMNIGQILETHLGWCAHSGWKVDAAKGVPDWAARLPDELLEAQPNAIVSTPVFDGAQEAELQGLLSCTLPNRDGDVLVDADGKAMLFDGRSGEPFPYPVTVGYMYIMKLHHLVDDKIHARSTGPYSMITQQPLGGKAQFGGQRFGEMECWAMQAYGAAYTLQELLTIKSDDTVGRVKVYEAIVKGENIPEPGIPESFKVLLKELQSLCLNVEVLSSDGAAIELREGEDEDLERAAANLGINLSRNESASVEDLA
# Sequence (P9WGI1 whole entry, further chain): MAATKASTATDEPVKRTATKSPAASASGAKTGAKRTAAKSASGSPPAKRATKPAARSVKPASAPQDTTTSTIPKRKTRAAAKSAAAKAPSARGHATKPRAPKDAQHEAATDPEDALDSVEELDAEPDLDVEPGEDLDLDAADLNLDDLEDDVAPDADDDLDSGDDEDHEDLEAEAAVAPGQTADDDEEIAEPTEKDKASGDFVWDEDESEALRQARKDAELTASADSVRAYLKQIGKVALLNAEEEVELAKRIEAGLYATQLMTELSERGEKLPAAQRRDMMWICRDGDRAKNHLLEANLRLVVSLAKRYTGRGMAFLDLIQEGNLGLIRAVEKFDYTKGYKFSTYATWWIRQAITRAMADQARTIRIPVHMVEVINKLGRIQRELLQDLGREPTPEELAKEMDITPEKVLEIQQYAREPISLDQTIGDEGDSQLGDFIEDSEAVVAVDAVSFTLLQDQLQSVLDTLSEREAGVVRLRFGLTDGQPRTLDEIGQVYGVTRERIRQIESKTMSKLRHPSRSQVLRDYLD
# Sequence (P9WGY7 whole entry): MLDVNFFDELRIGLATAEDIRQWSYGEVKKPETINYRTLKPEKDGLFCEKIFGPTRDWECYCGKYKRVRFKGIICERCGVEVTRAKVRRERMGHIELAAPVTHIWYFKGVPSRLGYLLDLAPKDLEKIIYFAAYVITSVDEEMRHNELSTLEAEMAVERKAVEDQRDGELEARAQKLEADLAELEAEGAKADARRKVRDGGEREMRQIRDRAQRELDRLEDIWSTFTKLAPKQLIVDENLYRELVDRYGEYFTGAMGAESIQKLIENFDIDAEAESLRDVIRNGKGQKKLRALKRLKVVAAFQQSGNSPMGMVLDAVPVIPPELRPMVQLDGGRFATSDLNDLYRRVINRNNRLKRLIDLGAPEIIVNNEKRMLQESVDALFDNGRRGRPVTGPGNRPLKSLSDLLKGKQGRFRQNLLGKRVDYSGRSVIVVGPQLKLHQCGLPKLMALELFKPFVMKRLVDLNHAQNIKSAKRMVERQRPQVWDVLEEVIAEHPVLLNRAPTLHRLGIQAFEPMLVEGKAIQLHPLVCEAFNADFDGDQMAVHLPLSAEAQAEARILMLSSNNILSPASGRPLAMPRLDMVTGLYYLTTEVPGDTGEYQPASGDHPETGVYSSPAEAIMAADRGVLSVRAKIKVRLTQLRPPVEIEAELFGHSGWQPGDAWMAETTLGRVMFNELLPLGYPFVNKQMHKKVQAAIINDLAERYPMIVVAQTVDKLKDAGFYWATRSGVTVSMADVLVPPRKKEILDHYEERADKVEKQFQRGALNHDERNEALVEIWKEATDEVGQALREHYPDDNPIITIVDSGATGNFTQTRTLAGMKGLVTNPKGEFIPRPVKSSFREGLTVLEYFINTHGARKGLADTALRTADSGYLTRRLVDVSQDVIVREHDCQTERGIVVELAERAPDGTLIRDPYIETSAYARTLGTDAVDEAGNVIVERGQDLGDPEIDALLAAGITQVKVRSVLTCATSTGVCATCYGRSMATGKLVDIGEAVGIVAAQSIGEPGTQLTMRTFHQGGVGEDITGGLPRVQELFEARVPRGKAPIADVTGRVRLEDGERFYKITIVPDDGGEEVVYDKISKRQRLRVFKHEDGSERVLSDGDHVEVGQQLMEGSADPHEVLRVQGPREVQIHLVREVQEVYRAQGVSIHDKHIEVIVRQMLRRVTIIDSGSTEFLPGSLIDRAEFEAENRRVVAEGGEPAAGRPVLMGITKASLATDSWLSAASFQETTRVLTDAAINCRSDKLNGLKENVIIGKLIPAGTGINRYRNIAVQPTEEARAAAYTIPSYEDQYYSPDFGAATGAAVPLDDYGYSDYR
# ASSAY_EXPLANATION: Run-off transcription assay with Mycobacterium tuberculosis RNA polymerase (radiochemical)
# Type: biochemical
# SETUP_CONDITIONS: Inhibition of mycobacterial RNA polymerase (IC50s), radiochemical transcription assays; M. tuberculosis RNA polymerase
Value format note: pIC50 is -log10 of concentration (mol/L); just state the number.

Recorded pIC50, per entry:
{"columns": ["COMPOUND", "pIC50"],
 "data": [
  ["Cc1ccccc1NC(=O)C(Cc1ccccc1)NC(=O)c1ccccc1 (racemic)", 6.17],
  ["Cc1ccc(NC(=O)C(Cc2ccccc2)NC(=O)c2ccco2)cc1 (stereo not shown)", 5.28],
  ["Cc1ccccc1NC(=O)[C@@H](Cc1ccccc1)NC(=O)c1ccccc1", 6.89]
]}

Shift focus to the following entry.
[in] What does the record list as pIC50 for Cc1ccccc1NC(=O)[C@H](Cc1ccccc1)NC(=O)c1ccccc1 ?
[out] 4.92

* * *

# TARGET_OR_SYSTEM: Mycobacterium tuberculosis RNA polymerase (Mycobacterium tuberculosis, UniProt P9WGY7+P9WGY9)
# ASSAY_EXPLANATION: Run-off transcription assay with Mycobacterium tuberculosis RNA polymerase (radiochemical)
# Assay type: biochemical
# SETUP_CONDITIONS: IC50 Mycobacterium tuberculosis RNA polymerase
MEASURED_ATTRIBUTE: IC50 (nM)
Give the number; nM is assumed, so skip it.

Recorded IC50, per entry:
{"columns": ["MOLECULE", "OBS_VALUE"],
 "data": [
  ["O=C(NC(Cc1ccccc1)C(=O)Nc1cc(F)ccc1N1CCNCC1)c1ccccc1 (stereo not drawn)", 220],
  ["O=C(NC(Cc1ccccc1)C(=O)Nc1ccccc1N1CCOCC1)c1ccccc1 (stereo not drawn)", 400],
  ["Cc1ccc(F)cc1NC(=O)C(Cc1ccccc1)NC(=O)c1ccccc1 (stereo not drawn)", 990],
  ["COc1ccc(F)cc1NC(=O)C(Cc1ccc(O)cc1)NC(=O)c1ccccc1F (stereo not drawn)", 390],
  ["O=C(NC(Cc1ccccc1)C(=O)Nc1ccccc1OCF)c1ccccc1 (stereo not drawn)", 990],
  ["O=C(NC(Cc1ccccc1)C(=O)Nc1cc(F)ccc1N1CCNCC1)c1ccccc1Br (stereo not drawn)", 210],
  ["O=C(NC(Cc1ccccc1)C(=O)Nc1cccc2[nH]ncc12)c1ccccc1 (stereo not drawn)", 3300],
  ["O=C(NC(Cc1ccccc1)C(=O)Nc1cc(F)ccc1N1CCNCC1)c1cccs1 (stereo not drawn)", 280]
]}

Shift focus to the following entry.
[in] What does the record list as IC50 for Cc1ccccc1C(=O)NC(Cc1ccccc1)C(=O)Nc1cc(F)ccc1N1CCNCC1 (stereo not drawn) ?
[out] 140

* * *

# Test system: Vero E6 ATCC CRL1586 cells
# ASSAY_EXPLANATION: Mammalian-cell cytotoxicity, minimal cytotoxic concentration (CellTiter96)
# Type: cell-based
Response field label takes yes when MCC mammalian cells Vero E6 ATCC CRL1586 is strictly below 40 µg/mL and no in all other cases.

Answered cases to consult:
{"columns": ["COMPOUND", "ANSWER_LABEL"],
 "data": [
  ["O=C(NC(Cc1ccccc1)C(=O)Nc1cccc2[nH]ccc12)c1ccccc1F (stereo not shown)", "no"],
  ["Cc1ccccc1NC(=O)C(Cc1ccc(O)cc1)NC(=O)c1cccs1 (stereo not shown)", "no"],
  ["CCc1ccccc1NC(=O)C(Cc1ccccc1)NC(=O)c1ccccc1 (stereo not shown)", "yes"],
  ["O=C(NC(Cc1ccccc1)C(=O)Nc1cccc2c1OCCO2)c1cccc2[nH]ccc12 (stereo not shown)", "no"],
  ["O=C(NC(Cc1ccccc1)C(=O)Nc1ccccc1N1CCOCC1)c1ccccc1 (stereo not shown)", "no"],
  ["O=C(NC(Cc1ccccc1)C(=O)Nc1ccccc1N1CCOCC1)c1ccccc1F (stereo not shown)", "no"],
  ["Cc1ccc(F)cc1NC(=O)C(Cc1ccc(O)cc1)NC(=O)c1cccs1 (stereo not shown)", "no"],
  ["O=C(NC(Cc1ccccc1)C(=O)Nc1cccc2cc[nH]c12)c1ccccc1F (stereo not shown)", "no"],
  ["O=C(NC(Cc1ccccc1)C(=O)Nc1cccc2[nH]ncc12)c1cccc2[nH]ccc12 (stereo not shown)", "yes"],
  ["COc1ccc(F)cc1NC(=O)C(Cc1ccc(O)cc1)NC(=O)c1ccccc1F (stereo not shown)", "no"]
]}

Now consider a different compound.
[in] Below 40 µg/mL on MCC mammalian cells Vero E6 ATCC CRL1586? Entry COc1ccc(Cl)cc1NC(=O)C(Cc1ccccc1)NC(=O)c1ccccc1F (stereo not shown)
[out] yes
